All values here come from paper PMC8954547.

# Tested on: HEK293-CCK2i4svR cells
# experiment notes: Radioligand uptake and internalization in HEK293-CCK2i4svR cells
# Type: cell-based, human
Provide the recorded Internalized to membrane-bound ratio for the entries that follow.
Write the number on its own, no unit after it.

Inquiry: Please tell me: Internalized to membrane-bound ratio of CC(C)(C)C(=O)CN1C(=O)[C@H](NC(=O)Nc2cccc(C(=O)NCCOCCOCCOCCNC(=O)[C@H](CCC(=O)O)NC(=O)CCC(C(=O)O)N3CCN(CC(=O)[O-])CCN(CC(=O)[O-])CCN(CC(=O)[O-])CC3)c2)CN(C2CCCCC2)c2ccccc21.[177Lu+3] (stereo in doubt) [[^177Lu]Lu-GAS3] , system HEK293-CCK2i4svR cells?
Reply text: 2.8

Inquiry: Check CC(C)(C)C(=O)CN1C(=O)[C@H](NC(=O)Nc2cccc(C(=O)NCCOCCOCCOCCNC(=O)[C@H](CCC(=O)O)NC(=O)CCC(C(=O)[O-])N3CCN(CC(=O)[O-])CCN(CC(=O)[O-])CC3)c2)CN(C2CCCCC2)c2ccccc21.[67Ga+3] (stereo in doubt) [[^67Ga]Ga-GAS2] too.
Reply text: 0.9

Inquiry: Check CC(C)(C)C(=O)CN1C(=O)[C@H](NC(=O)Nc2cccc(C(=O)NCCOCCOCCOCCNC(=O)[C@@H](CCC(=O)O)NC(=O)CCC(C(=O)O)N3CCN(CC(=O)[O-])CCN(CC(=O)[O-])CCN(CC(=O)[O-])CC3)c2)CN(C2CCCCC2)c2ccccc21.[111In+3] (stereo partly shown) [[^111In]In-GAS3] too.
Reply text: 4.1

Inquiry: Check CC(C)(C)C(=O)CN1C(=O)[C@H](NC(=O)Nc2cccc(C(=O)NCCOCCOCCOCCNC(=O)[C@H](CCC(=O)O)NC(=O)CN3CCN(CC(=O)[O-])CCN(CC(=O)[O-])CCN(CC(=O)[O-])CC3)c2)CN(C2CCCCC2)c2ccccc21.[67Ga+3] (stereo in doubt) [[^67Ga]Ga-GAS1] too.
Reply text: 0.7

* * *

Provide the recorded Cell uptake (internalized + membrane-bound) for the entries that follow.
# Tested on: HEK293-CCK2i4svR cells
# experiment notes: Radioligand uptake and internalization in HEK293-CCK2i4svR cells
# Format: cell-based, human
# cond: 1 h 37 °C, specific, of total added activity

Inquiry: Query: Cell uptake (internalized + membrane-bound); subject: CC(C)(C)C(=O)CN1C(=O)[C@H](NC(=O)Nc2cccc(C(=O)NCCOCCOCCOCCNC(=O)[C@H](CCC(=O)O)NC(=O)CCC(C(=O)O)N3CCN(CC(=O)[O-])CCN(CC(=O)[O-])CCN(CC(=O)[O-])CC3)c2)CN(C2CCCCC2)c2ccccc21.[177Lu+3] (stereo in doubt) [[^177Lu]Lu-GAS3]
Reply text: 7.65 ± 1.31%

Inquiry: Check CC(C)(C)C(=O)CN1C(=O)[C@H](NC(=O)Nc2cccc(C(=O)NCCOCCOCCOCCNC(=O)[C@H](CCC(=O)O)NC(=O)CN3CCN(CC(=O)[O-])CCN(CC(=O)[O-])CCN(CC(=O)[O-])CC3)c2)CN(C2CCCCC2)c2ccccc21.[67Ga+3] (stereo in doubt) [[^67Ga]Ga-GAS1] too.
Reply text: 4.26 ± 0.99%

Inquiry: Check CC(C)(C)C(=O)CN1C(=O)[C@H](NC(=O)Nc2cccc(C(=O)NCCOCCOCCOCCNC(=O)[C@H](CCC(=O)O)NC(=O)CCC(C(=O)O)N3CCN(CC(=O)[O-])CCN(CC(=O)[O-])CCN(CC(=O)[O-])CC3)c2)CN(C2CCCCC2)c2ccccc21.[67Ga+3] (stereo in doubt) [[^67Ga]Ga-GAS3] too.
Reply text: 4.95 ± 0.51%

Inquiry: Check CC(C)(C)C(=O)CN1C(=O)[C@H](NC(=O)Nc2cccc(C(=O)NCCOCCOCCOCCNC(=O)[C@H](CCC(=O)O)NC(=O)CCC(C(=O)[O-])N3CCN(CC(=O)[O-])CCN(CC(=O)[O-])CC3)c2)CN(C2CCCCC2)c2ccccc21.[67Ga+3] (stereo in doubt) [[^67Ga]Ga-GAS2] too.
Reply text: 7.32 ± 0.57%

Inquiry: Check CC(C)(C)C(=O)CN1C(=O)[C@H](NC(=O)Nc2cccc(C(=O)NCCOCCOCCOCCNC(=O)[C@@H](CCC(=O)O)NC(=O)CCC(C(=O)O)N3CCN(CC(=O)[O-])CCN(CC(=O)[O-])CCN(CC(=O)[O-])CC3)c2)CN(C2CCCCC2)c2ccccc21.[111In+3] (some centres unmarked) [[^111In]In-GAS3] too.
Reply text: 13.81 ± 0.89%

* * *

# Test system: SCID mice bearing twin HEK293-CCK2i4svR and wtHEK293 tumors
# experiment notes: Biodistribution in SCID mice bearing twin HEK293-CCK2i4svR and wtHEK293 xenografts
# Type: in vivo
# cond: 4 h pi
measured metric: Biodistribution, Stomach

Inquiry: Query: Biodistribution, Stomach; subject: CC(C)(C)C(=O)CN1C(=O)[C@H](NC(=O)Nc2cccc(C(=O)NCCOCCOCCOCCNC(=O)[C@H](CCC(=O)O)NC(=O)CN3CCN(CC(=O)[O-])CCN(CC(=O)[O-])CCN(CC(=O)[O-])CC3)c2)CN(C2CCCCC2)c2ccccc21.[177Lu+3] (stereo in doubt) [[^177Lu]Lu-GAS1]
Reply text: 0.37 ± 0.05 %IA/g

Inquiry: Check CC(C)(C)C(=O)CN1C(=O)[C@H](NC(=O)Nc2cccc(C(=O)NCCOCCOCCOCCNC(=O)[C@H](CCC(=O)O)NC(=O)CCC(C(=O)O)N3CCN(CC(=O)[O-])CCN(CC(=O)[O-])CCN(CC(=O)[O-])CC3)c2)CN(C2CCCCC2)c2ccccc21.[177Lu+3] (stereo in doubt) [[^177Lu]Lu-GAS3] too.
Reply text: 0.64 ± 0.07 %IA/g

Inquiry: Check CC(C)(C)C(=O)CN1C(=O)[C@H](NC(=O)Nc2cccc(C(=O)NCCOCCOCCOCCNC(=O)[C@H](CCC(=O)O)NC(=O)CN3CCN(CC(=O)[O-])CCN(CC(=O)[O-])CCN(CC(=O)[O-])CC3)c2)CN(C2CCCCC2)c2ccccc21.[111In+3] (stereo in doubt) [[^111In]In-GAS1] too.
Reply text: 0.98 ± 0.21 %IA/g

Inquiry: Check CC(C)(C)C(=O)CN1C(=O)[C@H](NC(=O)Nc2cccc(C(=O)NCCOCCOCCOCCNC(=O)[C@@H](CCC(=O)O)NC(=O)CCC(C(=O)[O-])N3CCN(CC(=O)[O-])CCN(CC(=O)[O-])CC3)c2)CN(C2CCCCC2)c2ccccc21.[111In+3] (stereo partly shown) [[^111In]In-GAS2] too.
Reply text: 1.31 ± 0.21 %IA/g

* * *

# Tested on: SCID mice bearing twin HEK293-CCK2i4svR and wtHEK293 tumors
# experiment notes: Biodistribution in SCID mice bearing twin HEK293-CCK2i4svR and wtHEK293 xenografts
# Assay type: in vivo
# cond: 24 h pi
Given measured Biodistribution, Liver, output 1.0 if it is greater than or equal to 1 %IA/g and 0.0 if not.

Inquiry: Is it the case that CC(C)(C)C(=O)CN1C(=O)[C@H](NC(=O)Nc2cccc(C(=O)NCCOCCOCCOCCNC(=O)[C@H](CCC(=O)O)NC(=O)CCC(C(=O)O)N3CCN(CC(=O)[O-])CCN(CC(=O)[O-])CCN(CC(=O)[O-])CC3)c2)CN(C2CCCCC2)c2ccccc21.[67Ga+3] (stereo in doubt) [[^67Ga]Ga-GAS3] has Biodistribution, Liver reaching or exceeding 1 %IA/g?
Reply text: 1.0

Inquiry: Check CC(C)(C)C(=O)CN1C(=O)[C@H](NC(=O)Nc2cccc(C(=O)NCCOCCOCCOCCNC(=O)[C@@H](CCC(=O)O)NC(=O)CCC(C(=O)O)N3CCN(CC(=O)[O-])CCN(CC(=O)[O-])CCN(CC(=O)[O-])CC3)c2)CN(C2CCCCC2)c2ccccc21.[111In+3] (stereo partly drawn) [[^111In]In-GAS3] too.
Reply text: 1.0

Inquiry: Check CC(C)(C)C(=O)CN1C(=O)[C@H](NC(=O)Nc2cccc(C(=O)NCCOCCOCCOCCNC(=O)[C@H](CCC(=O)O)NC(=O)CN3CCN(CC(=O)[O-])CCN(CC(=O)[O-])CCN(CC(=O)[O-])CC3)c2)CN(C2CCCCC2)c2ccccc21.[67Ga+3] (stereo in doubt) [[^67Ga]Ga-GAS1] too.
Reply text: 0.0

Inquiry: Check CC(C)(C)C(=O)CN1C(=O)[C@H](NC(=O)Nc2cccc(C(=O)NCCOCCOCCOCCNC(=O)[C@H](CCC(=O)O)NC(=O)CN3CCN(CC(=O)[O-])CCN(CC(=O)[O-])CCN(CC(=O)[O-])CC3)c2)CN(C2CCCCC2)c2ccccc21.[111In+3] (stereo in doubt) [[^111In]In-GAS1] too.
Reply text: 1.0

Inquiry: Check CC(C)(C)C(=O)CN1C(=O)[C@H](NC(=O)Nc2cccc(C(=O)NCCOCCOCCOCCNC(=O)[C@H](CCC(=O)O)NC(=O)CN3CCN(CC(=O)[O-])CCN(CC(=O)[O-])CCN(CC(=O)[O-])CC3)c2)CN(C2CCCCC2)c2ccccc21.[177Lu+3] (stereo in doubt) [[^177Lu]Lu-GAS1] too.
Reply text: 0.0

Inquiry: Check CC(C)(C)C(=O)CN1C(=O)[C@H](NC(=O)Nc2cccc(C(=O)NCCOCCOCCOCCNC(=O)[C@@H](CCC(=O)O)NC(=O)CCC(C(=O)[O-])N3CCN(CC(=O)[O-])CCN(CC(=O)[O-])CC3)c2)CN(C2CCCCC2)c2ccccc21.[111In+3] (stereo partly drawn) [[^111In]In-GAS2] too.
Reply text: 0.0
